# System: E. coli 190317 (TEM-1, SHV-12, CTX-M-15, OXA-1)
# EXPERIMENT: MIC of compounds alone, broth microdilution
# Format: cell-based
# RECORDED CONDITIONS: Escherichia coli, read-out: MIC compounds of the invention alone
PROPERTY LABEL: MIC (µg/mL)
# output: bare number, implied unit µg/mL

Consider the following illustrative entries.
Query: Request the reported MIC associated with O=C1N2CC(c3ncco3)=C[C@H](C2)N1OC(F)(F)C(=O)O (racemic) [Example 37]
Result: 2

Query: // query: Cn1cc(C2=CCN3CC2N(OS(=O)(=O)[O-])C3=O)ccc1=O.[Na+] (stereo not shown) [Example 8]
Result: 8

Query: What do you get for O=C1N2CC=C(c3ncco3)C(C2)N1OS(=O)(=O)[O-].[Na+] (stereo not shown) [Example 4] ?
Result: 8

Query: Then this compound: Cn1ncc(C2=CCN3CC2N(OS(=O)(=O)[O-])C3=O)cc1=O.[Na+] (stereo not shown) [Example 19]
Result: 2

Query: Item: O=C1N2CC(c3ccncc3)=CC(C2)N1OS(=O)(=O)[O-].[Na+] (stereo not shown) [Example 33]
Result: 4

Others:
Query: Need MIC, item O=C1N2CC=C(c3cnoc3)C(C2)N1OC(F)(F)C(=O)[O-].[Li+] (stereo not shown) [Example 6]
Result: 2

Query: Next: O=C1N2CC=C(c3ccncc3)C(C2)N1OS(=O)(=O)[O-].[Na+] (stereo not shown) [Example 7]
Result: 8

Query: Okay, and O=C1N2CC=C(c3cn[nH]c3)C(C2)N1OS(=O)(=O)[O-].[Na+] (stereo not shown) [Example 1] ?
Result: 32

Query: Now the same for O=C1N2CC(c3ccccn3)=CC(C2)N1OS(=O)(=O)[O-].[Na+] (stereo not shown) [Example 42]
Result: 16

Query: Can you check Cn1cnc(C2=CCN3CC2N(OS(=O)(=O)[O-])C3=O)cc1=O.[Na+] (stereo not shown) [Example 20] next?
Result: 8

Query: Please answer likewise for Cn1nc(C2=CCN3CC2N(OS(=O)(=O)[O-])C3=O)ccc1=O.[Na+] (stereo not shown) [Example 17]
Result: 4

Query: Next: NCc1cnc(C2=CC3CN(C2)C(=O)N3OS(=O)(=O)O)s1 (stereo not shown) [Example 38]
Result: 1

Query: Next compound up: O=C1N2CC=C(c3cscn3)C(C2)N1OS(=O)(=O)[O-].[Na+] (stereo not shown) [Example 31]
Result: 16

Query: Would you kindly repeat that for COc1ncc(C2=CCN3CC2N(OS(=O)(=O)[O-])C3=O)cn1.[Na+] (stereo not shown) [Example 24] ?
Result: 16

Query: Consider next the compound NCc1ncc(C2=CCN3CC2N(OS(=O)(=O)O)C3=O)s1 (stereo not shown) [Example 32] in the same way.
Result: 8

###

# Tested on: E. cloacae P99 (AmpC)
# EXPERIMENT: MIC of compounds alone, broth microdilution
# Assay type: cell-based
# RECORDED CONDITIONS: Enterobacter cloacae; strain P99 (E. cloacae); read-out: MIC compounds of the invention alone
PROPERTY LABEL: MIC (µg/mL)
Supply the numeric figure in µg/mL, leaving out any unit text.

Query: // query MIC value for entry O=C1N2CC(c3ccncc3)=CC(C2)N1OS(=O)(=O)[O-].[Na+] (centres unmarked)
Result: 8

Query: Again, but for Cn1cnc(C2=CCN3CC2N(OS(=O)(=O)[O-])C3=O)cc1=O.[Na+] (centres unmarked)
Result: 32

Query: Request: Cn1nc(C2=CCN3CC2N(OS(=O)(=O)[O-])C3=O)ccc1=O.[Na+] (centres unmarked)
Result: 16

Query: Quick one: NCc1ncc(C2=CCN3CC2N(OS(=O)(=O)O)C3=O)s1 (centres unmarked)
Result: 16

Query: Consider next the compound O=C1N2CC(c3ncon3)=CC(C2)N1OS(=O)(=O)[O-].[Na+] (centres unmarked) in the same way.
Result: 8

Query: Now the compound O=C1N2CC(c3cccnc3)=CC(C2)N1OS(=O)(=O)[O-].[Na+] (centres unmarked)
Result: 8

Others:
Query: Please look up its MIC: O=C1N2CC=C(c3cnoc3)C(C2)N1OS(=O)(=O)[O-].[Na+] (centres unmarked)
Result: 8

Query: Thanks! And Cn1c(C2=CCN3CC2N(OS(=O)(=O)[O-])C3=O)cccc1=O.[Na+] (centres unmarked) ?
Result: 16

###

Form field: IC50 (one value per entry).
# STUDY TARGET: SHV-1 (Klebsiella pneumoniae, UniProt P0AD64)
# Construct: made in house; host or cells: E. coli
# Sequence (P0AD64 22-286): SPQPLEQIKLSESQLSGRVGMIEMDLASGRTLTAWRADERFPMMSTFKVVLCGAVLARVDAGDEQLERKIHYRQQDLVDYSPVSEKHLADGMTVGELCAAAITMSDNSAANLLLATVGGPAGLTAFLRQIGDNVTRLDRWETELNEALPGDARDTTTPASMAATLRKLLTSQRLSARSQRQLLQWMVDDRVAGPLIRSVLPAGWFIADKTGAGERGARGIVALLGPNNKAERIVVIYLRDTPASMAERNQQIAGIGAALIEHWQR
# EXPERIMENT: β-lactamase inhibitory activity, determination of IC50 (nitrocefin hydrolysis)
# Assay type: biochemical
Field: numeric (nM). Do not append units.

Illustrative cases are given below, each with its answer.
Query: Hello, I am looking for reported IC50 with SHV-1 (Klebsiella pneumoniae, UniProt P0AD64) for Cn1nccc1C1=CCN2CC1N(OS(=O)(=O)[O-])C2=O.[Na+] (centres unmarked) [Example 2, sulfate] . Could you help?
Result: 6.4

Query: Same lookup for Cn1cc(C2=CCN3CC2N(OS(=O)(=O)[O-])C3=O)c(=O)n(C)c1=O.[Na+] (centres unmarked) [Example 23, sulfate] , please.
Result: 3.1

Query: How about O=C1N2CC=C(c3cscn3)C(C2)N1OS(=O)(=O)[O-].[Na+] (centres unmarked) [Example 31, sulfate] ?
Result: 11

Query: Same question, O=C1N2CC=C(c3cccnc3)C(C2)N1OS(=O)(=O)[O-].[Na+] (centres unmarked) [Example 9] this time
Result: 11

Query: Another compound to look at: O=C1N2CC=C(c3cnsc3)C(C2)N1OS(=O)(=O)[O-].[Na+] (centres unmarked) [Example 29, sulfate]
Result: 20

Query: Next up: O=C1N2CC(c3nc4cccnc4s3)=CC(C2)N1OS(=O)(=O)[O-].[Na+] (centres unmarked) [Example 40, sulfate]
Result: 1.1

More entries:
Query: Request body: readout IC50, system SHV-1 (Klebsiella pneumoniae, UniProt P0AD64), query O=C1N2CC(c3cccnc3)=CC(C2)N1OS(=O)(=O)[O-].[Na+] (centres unmarked) [Example 41] . Return the value.
Result: 3.6

Query: Cool, now Cn1cnc(C2=CCN3CC2N(OS(=O)(=O)[O-])C3=O)cc1=O.[Na+] (centres unmarked) [Example 20, sulfate]
Result: 6.7

###

# STUDY TARGET: OXA-11 (Pseudomonas aeruginosa, UniProt Q06778)
# Construct: made in house; host or cells: E. coli
# Sequence (Q06778 21-266): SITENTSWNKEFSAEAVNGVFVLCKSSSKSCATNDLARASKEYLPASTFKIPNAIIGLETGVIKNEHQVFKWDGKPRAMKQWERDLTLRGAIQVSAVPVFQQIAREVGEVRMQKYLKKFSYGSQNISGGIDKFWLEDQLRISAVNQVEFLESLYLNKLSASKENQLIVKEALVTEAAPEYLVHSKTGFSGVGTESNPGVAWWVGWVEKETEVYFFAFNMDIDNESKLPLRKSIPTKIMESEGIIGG
# EXPERIMENT: β-lactamase inhibitory activity, determination of IC50 (nitrocefin hydrolysis)
# Format: biochemical
PROPERTY LABEL: log10 of IC50 (log10 of the value in nM)
Give log10 of IC50, with IC50 taken in nM.

Query: Suppose we examine the molecule Cn1cc(C2=CCN3CC2N(OS(=O)(=O)[O-])C3=O)ccc1=O.[Na+] (stereo not drawn) [Example 8, sulfate] ; what log10 of IC50 value has been reported?
Result: 3.15

Query: And what about the molecule O=C1N2CC(c3cnoc3)=CC(C2)N1OS(=O)(=O)[O-].[Na+] (stereo not drawn) [Example 26, sulfate] ?
Result: 2.15

Query: Would you kindly repeat that for O=C1N2CC(c3nc4cccnc4s3)=CC(C2)N1OS(=O)(=O)[O-].[Na+] (stereo not drawn) [Example 40, sulfate] ?
Result: 1.79

Query: Now this one: Cn1cccc(C2=CCN3CC2N(OS(=O)(=O)[O-])C3=O)c1=O.[Na+] (stereo not drawn) [Example 16, sulfate]
Result: 3.87

More entries:
Query: Sample O=C1N2CC(c3ncco3)=C[C@H](C2)N1OS(=O)(=O)[O-].[Na+] [Example 44, sulfate] — what was its log10 of IC50?
Result: 1.66

Query: Moving on to the next molecule: O=C1N2CC(c3ccccn3)=CC(C2)N1OS(=O)(=O)[O-].[Na+] (stereo not drawn)
Result: 2.08

Query: And then O=C1N2CC(c3ccncc3)=CC(C2)N1OS(=O)(=O)[O-].[Na+] (stereo not drawn) , what is it?
Result: 2.32

Query: Next: O=C1N2CC(n3ccnc3)=CC(C2)N1OS(=O)(=O)[O-].[Na+] (stereo not drawn)
Result: 2.81

Query: Lookup COc1ncc(C2=CCN3CC2N(OS(=O)(=O)[O-])C3=O)cn1.[Na+] (stereo not drawn) [Example 24, sulfate]
Result: 3.08

Query: Also O=C1N2CC=C(c3ccncc3)C(C2)N1OS(=O)(=O)[O-].[Na+] (stereo not drawn) , if possible.
Result: 3.36

Query: And the next one, Cn1cnc(C2=CCN3CC2N(OS(=O)(=O)[O-])C3=O)cc1=O.[Na+] (stereo not drawn) [Example 20, sulfate] ?
Result: 2.63

Query: Now consider O=C1N2CC=C(c3cnco3)C(C2)N1OS(=O)(=O)[O-].[Na+] (stereo not drawn) and answer again.
Result: 3.04

Query: O=C1N2CC(c3ncon3)=CC(C2)N1OS(=O)(=O)[O-].[Na+] (stereo not drawn) [Example 36, sulfate] , same question.
Result: 2.96
